Attribution: a melting point compilation (Tetko et al.; mined from patent text by program, amines drawn as free bases though some values may be those of a salt)

Below, each entry is listed with its recorded melting point.

Reference set, count: 8
CCOC(=O)C1=C(C)OC(N)=C(C(=O)OCC)C1c1cccc([N+](=O)[O-])c1 (stereo unspecified) : 161 °C
O=[N+]([O-])c1cc(Cl)c(Cl)cc1NC1CCC(O)C1O (stereo unspecified) : 134 to 136 °C
COC(=O)C1CC1c1ccc(O)cc1 (stereo unspecified) : 69 to 71 °C
CC(C(=O)NN1CCOCC1)C(C#N)(c1ccccc1)c1ccccc1 (stereo unspecified) : 210 to 215 °C
C=C(CC(=O)c1ccc(Cl)c(Cl)c1)C(=O)O : 156 to 157 °C
O=C(CBr)CCc1ccccc1 : 39 to 40 °C
N#Cc1c(Cc2ccccc2)nn(C2CCCC2)c1NC(=O)Cc1ccccc1 : 166 to 168 °C
OCC1OC(n2c(Cl)nc3cc(Cl)c(Cl)cc32)C(O)C1O (stereo unspecified) : 175 to 176 °C

Request: Read the entry CC1(C)Oc2cc3nonc3cc2C(NC(=O)CCl)C1O (stereo unspecified) and write its reported melting point.
Result: 232 to 234 °C

Request: Read the entry `O=C1N=C2C(=O)SC=C2N1` and write its reported melting point.
Result: 177 to 180 °C

Request: Read the entry `CCOC(=O)CC1CCN(C(=O)c2ccccc2)CC1` and write its reported melting point.
Result: 47 to 48 °C
